Biological target: Neu5Ac(a2-3)Gal(b1-4)[Fuc(a1-3)]GlcNAc(b1-6)[Gal(b1-3)]GalNAc
Test: glycan array binding signal (z-score within array); higher = stronger binding
Settings: glycan notation: IUPAC condensed, linker removed
Only a selection was taken, and the strongest signals are over-represented in it overall.
quantity_name: glycan array binding signal (z-score)
Give the value as a plain number.

Pbx2CASH domain (Cryptococcus neoformans) (protein) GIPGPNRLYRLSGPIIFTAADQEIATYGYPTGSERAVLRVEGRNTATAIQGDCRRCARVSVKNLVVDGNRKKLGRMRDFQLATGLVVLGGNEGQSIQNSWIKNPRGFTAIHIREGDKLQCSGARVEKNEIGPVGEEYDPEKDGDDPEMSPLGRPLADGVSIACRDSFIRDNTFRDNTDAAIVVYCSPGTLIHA ... 0.909

Query: Fill in reported glycan array binding signal (z-score) for this entry: HA-11100 (Pseudomonas aeruginosa), Q02G51_PSEAB (protein) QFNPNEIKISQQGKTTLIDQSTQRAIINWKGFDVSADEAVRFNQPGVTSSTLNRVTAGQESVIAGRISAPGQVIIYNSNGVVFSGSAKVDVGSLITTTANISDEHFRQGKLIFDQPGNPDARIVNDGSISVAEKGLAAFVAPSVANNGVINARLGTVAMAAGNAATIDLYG
Result: 4.78

Query: Fill in reported glycan array binding signal (z-score) for this entry: rPitB (Streptococcus pneumoniae), A0A0I7U739 (protein) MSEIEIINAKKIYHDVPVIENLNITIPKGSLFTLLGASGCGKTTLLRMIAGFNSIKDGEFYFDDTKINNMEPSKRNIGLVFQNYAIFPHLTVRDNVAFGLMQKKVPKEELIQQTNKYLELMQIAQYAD
Result: 2.86

Query: Fill in reported glycan array binding signal (z-score) for this entry: Epa15 (Candida glabrata) (protein) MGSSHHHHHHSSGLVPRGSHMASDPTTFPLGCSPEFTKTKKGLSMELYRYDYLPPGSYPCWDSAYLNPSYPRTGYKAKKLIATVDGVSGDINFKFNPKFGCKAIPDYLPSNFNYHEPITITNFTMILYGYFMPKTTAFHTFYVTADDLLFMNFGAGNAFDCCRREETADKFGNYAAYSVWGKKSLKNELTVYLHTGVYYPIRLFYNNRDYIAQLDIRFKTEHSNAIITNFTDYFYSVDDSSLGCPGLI
Result: 1.87

Query: Fill in reported glycan array binding signal (z-score) for this entry: SBD-G4S3-SBD (protein) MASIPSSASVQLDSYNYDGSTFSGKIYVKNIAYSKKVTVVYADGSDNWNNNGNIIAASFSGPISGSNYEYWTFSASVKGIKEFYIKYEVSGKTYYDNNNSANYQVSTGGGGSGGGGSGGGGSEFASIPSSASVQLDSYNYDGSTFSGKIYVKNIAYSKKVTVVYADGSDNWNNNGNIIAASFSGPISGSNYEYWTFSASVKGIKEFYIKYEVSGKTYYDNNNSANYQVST
Result: 4.53

Query: Fill in reported glycan array binding signal (z-score) for this entry: Pwp6 (Candida glabrata) (protein) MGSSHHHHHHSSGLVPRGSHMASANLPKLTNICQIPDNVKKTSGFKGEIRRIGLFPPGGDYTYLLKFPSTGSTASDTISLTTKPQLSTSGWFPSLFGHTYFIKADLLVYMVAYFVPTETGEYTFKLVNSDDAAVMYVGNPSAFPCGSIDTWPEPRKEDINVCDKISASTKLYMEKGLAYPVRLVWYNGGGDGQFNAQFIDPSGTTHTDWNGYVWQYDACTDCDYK
Result: -0.222
